The origin of these recorded values is ChEMBL document CHEMBL5126548.

- Test system: SK-N-SH
- Experimental details: Antiproliferative activity against human SK-N-SH cells harboring wildtype TP53 assessed as reduction in cell viability and measured upto 72 hrs by XTT assay
- Type: functional, cell-based
Measured property: IC50

{"Structure string": "CC1(C)CCC2(CC1)N[C@H](C(=O)N[C@@H]1CC[C@@H](C(N)=O)OC1)[C@H](c1ccnc(Cl)c1F)[C@]21C(=O)Nc2cc(Cl)ccc21", "Study system": "SK-N-SH", "Recorded result": "21.9 nM"}

---

- Study system: Tumour suppressor p53/oncoprotein Mdm2 (Homo sapiens)
- Sequence (P04637 whole entry): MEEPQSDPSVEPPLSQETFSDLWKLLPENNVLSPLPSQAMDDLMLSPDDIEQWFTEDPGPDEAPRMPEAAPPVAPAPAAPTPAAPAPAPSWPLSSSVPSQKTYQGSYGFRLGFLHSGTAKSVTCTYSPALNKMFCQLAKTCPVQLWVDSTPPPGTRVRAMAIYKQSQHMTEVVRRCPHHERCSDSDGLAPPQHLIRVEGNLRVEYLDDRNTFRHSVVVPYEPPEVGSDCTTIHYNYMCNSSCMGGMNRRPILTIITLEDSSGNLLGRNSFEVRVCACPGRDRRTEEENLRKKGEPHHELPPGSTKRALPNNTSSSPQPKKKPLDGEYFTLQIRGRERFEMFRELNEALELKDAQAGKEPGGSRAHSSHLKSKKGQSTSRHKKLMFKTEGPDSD
- Sequence (Q00987 whole entry): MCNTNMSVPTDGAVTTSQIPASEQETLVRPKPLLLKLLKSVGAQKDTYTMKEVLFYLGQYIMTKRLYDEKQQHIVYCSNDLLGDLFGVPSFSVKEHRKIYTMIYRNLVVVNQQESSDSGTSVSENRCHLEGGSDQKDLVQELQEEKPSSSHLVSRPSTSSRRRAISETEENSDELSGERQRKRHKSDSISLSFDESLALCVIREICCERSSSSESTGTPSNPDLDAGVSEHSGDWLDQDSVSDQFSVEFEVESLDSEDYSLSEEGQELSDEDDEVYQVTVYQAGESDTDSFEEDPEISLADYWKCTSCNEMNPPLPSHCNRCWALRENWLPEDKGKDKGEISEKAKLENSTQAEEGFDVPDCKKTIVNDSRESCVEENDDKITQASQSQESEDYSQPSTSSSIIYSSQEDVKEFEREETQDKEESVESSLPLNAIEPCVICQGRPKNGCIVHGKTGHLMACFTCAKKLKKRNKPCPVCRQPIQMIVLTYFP
- Experimental details: Inhibition of recombinant human MDM2/p53 interaction
Measured property: IC50

{"Structure string": "COc1ccccc1-n1nc2c(c1C(C)C)[C@H](c1ccc(Cl)cc1C)N(c1cc(Cl)cc(OCCN(C)C)c1)C2=O", "Measured property": "IC50", "Recorded result": "0.13 nM"}

---

- Experimental details: Antiproliferative activity against human Kelly cells harboring TP53 mutant assessed as reduction in cell viability and measured upto 72 hrs by XTT assay
- Assay type: functional, cell-based
Measured property: IC50

{"Structure string": "CC1(C)CCC2(CC1)N[C@H](C(=O)N[C@@H]1CC[C@@H](C(N)=O)OC1)[C@H](c1ccnc(Cl)c1F)[C@]21C(=O)Nc2cc(Cl)ccc21", "Measured property": "IC50", "Recorded result": "> 2000 nM"}

---

- Experimental details: Cmax in CB17SCID mouse at 125 mg/kg, po and measured upto 24 hrs
- Type: ADME, organism-based
- Design: dose 125 mg/kg, time < 24 hrs, route po
- Measurement conditions: in vivo

{"Structure string": "CCC[C@H]1N(C(=O)c2ncccc2C(F)(F)F)CCC[C@@]1(Oc1csc(C(F)(F)F)c1)C(=O)N1CCC(O)(c2ccccc2O[C@H](C)CCC2(C(=O)O)CCC2)CC1", "Cmax": "40 µM"}

---

- Experimental details: Oral bioavailability in CD-1 mouse at 5 mg/kg by LC-MS/MS method
- Format: ADME, organism-based
- Measurement conditions: in vivo

{"Structure string": "CC(C)[C@@H](CS(=O)(=O)C(C)C)N1C(=O)[C@@](C)(CC(=O)O)C[C@H](c2cccc(Cl)c2)[C@H]1c1ccc(Cl)cc1", "bioavailability": "> 43%"}

---

- Experimental details: AUC in CB17SCID mouse at 125 mg/kg, po and measured upto 24 hrs
- Format: ADME, organism-based
- Design: dose 125 mg/kg, time < 24 hrs, route po
- Measurement conditions: in vivo
Measured property: AUC at 24 h

{"Structure string": "CCC[C@H]1N(C(=O)c2ncccc2C(F)(F)F)CCC[C@@]1(Oc1csc(C(F)(F)F)c1)C(=O)N1CCC(O)(c2ccccc2O[C@H](C)CCC2(C(=O)O)CCC2)CC1", "Measured property": "AUC at 24 h", "Recorded result": "200 µM·h"}
